# study-target: human AspH (His6-AspH315–758) (Homo sapiens)
# Construct: N-Terminally His6-tagged human AspH315–758 (His6-AspH315–758) was produced in Escherichia coli BL21 (DE3) cells; made in house; host or cells: Escherichia coli BL21 (DE3), pET-28a(+) vector
# assay-name: SPE-MS AspH inhibition assay (hFX-CP101-119 substrate hydroxylation)
# Type: biochemical
# condition-set: AspH-inhibitor screening, Plate 1-duplicate
measure: Plate 1-duplicate (% inhibition) (%)

Illustrative cases are given below, each with its answer.
molecule: Nc1nc2nc[nH]c2c(=S)[nH]1
study-target: human AspH (His6-AspH315–758) (Homo sapiens)
endpoint-result: 8.14

molecule: CC(C)C[C@H](NC(=O)[C@H](CCc1ccccc1)NC(=O)CN1CCOCC1)C(=O)N[C@@H](Cc1ccccc1)C(=O)N[C@@H](CC(C)C)C(=O)[C@@]1(C)CO1
study-target: human AspH (His6-AspH315–758) (Homo sapiens)
endpoint-result: -9.02

molecule: NCCCNCCSP(=O)(O)O
study-target: human AspH (His6-AspH315–758) (Homo sapiens)
endpoint-result: 5.75

[I] O=c1[nH]c(=O)n([C@H]2C[C@H](O)[C@@H](CO)O2)cc1F
[II] NC(=O)NO [Hydroxyurea]
Select one: I or II . Criterion: greater recorded Plate 1-duplicate (% inhibition). Pick one; state its label.
II
(II: 8.68%, I: 5.87%)

[P] Nc1ccccc1NC(=O)c1ccc(CNc2nccc(-c3cccnc3)n2)cc1
[Q] CN(C)C[C@@H]1CCn2cc(c3ccccc32)C2=C(C(=O)NC2=O)c2cn(c3ccccc23)CCO1.CS(=O)(=O)O
[R] C=CC(=O)Nc1cc(Nc2nccc(-c3cn(C)c4ccccc34)n2)c(OC)cc1N(C)CCN(C)C
Arrange items by their Plate 1-duplicate (% inhibition) values in increasing order. Form field (ranking): labels in requested order.
Q, P, R

====

# study-target: human AspH (His6-AspH315–758) (Homo sapiens)
# Construct: N-Terminally His6-tagged human AspH315–758 (His6-AspH315–758) was produced in Escherichia coli BL21 (DE3) cells; made in house; host or cells: Escherichia coli BL21 (DE3), pET-28a(+) vector
# Sequence (Q12797 315-758): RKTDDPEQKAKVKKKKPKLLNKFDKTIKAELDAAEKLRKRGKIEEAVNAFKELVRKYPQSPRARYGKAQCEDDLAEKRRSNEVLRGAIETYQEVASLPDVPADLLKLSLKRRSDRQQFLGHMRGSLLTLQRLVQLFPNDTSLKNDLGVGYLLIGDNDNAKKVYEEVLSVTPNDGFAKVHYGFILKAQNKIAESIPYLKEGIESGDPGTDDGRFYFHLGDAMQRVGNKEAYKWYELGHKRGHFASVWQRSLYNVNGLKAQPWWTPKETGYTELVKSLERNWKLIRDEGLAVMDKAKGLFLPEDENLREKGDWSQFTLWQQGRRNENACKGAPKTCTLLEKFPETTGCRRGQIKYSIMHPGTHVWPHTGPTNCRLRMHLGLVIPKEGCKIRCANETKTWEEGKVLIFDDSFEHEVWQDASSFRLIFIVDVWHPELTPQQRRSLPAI
# assay-name: SPE-MS AspH inhibition assay (hFX-CP101-119 substrate hydroxylation)
# Assay type: biochemical
measure: Plate 1 (% inhibition) (%)
Dear colleague, please return just the value in %, with no unit written.

Plate 1 (% inhibition) lookup needed for Cl.c1ccc(C2CN3CCSC3=N2)cc1 (stereo not shown) [Tetramisole HCl] , thanks.
7.83

GET /values?readout=Plate 1 (% inhibition)&item= CC(C)c1c(C(=O)Nc2ccccc2)c(-c2ccccc2)c(-c2ccc(F)cc2)n1CC[C@@H](O)C[C@@H](O)CC(=O)[O-].CC(C)c1c(C(=O)Nc2ccccc2)c(-c2ccccc2)c(-c2ccc(F)cc2)n1CC[C@@H](O)C[C@@H](O)CC(=O)[O-].[Ca+2]
0.42

Can you share its Plate 1 (% inhibition)? I mean this compound: Oc1ncc(N(CCCl)CCCl)c(O)n1
4.95

Consider the compound shown here: O=P1(N(CCCl)CCCl)NCCCO1 (stereo not shown) [Clafen (Cyclophosphamide, Endoxan)] What is its recorded Plate 1 (% inhibition)?
2.76
